- Procedure details: Rapid equilibrium dialysis
- Assay type: in vitro ADME, mouse
- Setup conditions: mouse, plasma, pH 7.4
Where a name gives a salt, the structure may show the parent alone.
Measured endpoint: fraction unbound at 4 h, 10 μM

Compound	Observed measurement
CC(C)(C)NCC(O)c1cc(O)cc(O)c1 (stereo not drawn)	0.638

(a) Nc1ccc(S(=O)(=O)Nc2ncccn2)cc1
(b) COc1ccc2c(c1)c(CC(=O)O)c(C)n2C(=O)c1ccc(Cl)cc1
Problem: Could you please tell me which of these two has the higher fraction unbound at 4 h, 10 μM: a or b ? In your reply, give the label of the chosen option.
Solution: a

(a) CC(=O)Nc1ccc(O)cc1
(b) Cc1ccnc(NS(=O)(=O)c2ccc(N)cc2)n1
(c) COc1cc(NS(=O)(=O)c2ccc(N)cc2)nc(OC)n1
Problem: Order the entries by their reported fraction unbound at 4 h, 10 μM, beginning at the minimum. // rank by listing labels in the order requested
Solution: c, b, a

(a) Cc1nnc(NS(=O)(=O)c2ccc(N)cc2)s1
(b) CC(=O)O[C@H]1C(=O)[C@@]2(C)[C@H]([C@H](OC(=O)c3ccccc3)[C@]3(O)C[C@H](OC(=O)[C@H](O)[C@@H](NC(=O)c4ccccc4)c4ccccc4)C(C)=C1C3(C)C)[C@]1(OC(C)=O)CO[C@@H]1C[C@@H]2O
(c) CC[C@H](C)C(=O)O[C@H]1C[C@@H](C)C=C2C=C[C@H](C)[C@H](CC[C@@H]3C[C@@H](O)CC(=O)O3)[C@H]21
(d) CS(=O)(=O)c1ccc(C(=O)Nc2ccc(Cl)c(-c3ccccn3)c2)c(Cl)c1
(e) O=C(CCCCCCC(=O)Nc1ccccc1)NO
Problem: Please list these in order of increasing fraction unbound at 4 h, 10 μM. Thank you! Give the labels in the order specified.
Solution: d, b, c, a, e
(d: 0.009, b: 0.024, c: 0.084, a: 0.353, e: 0.536)

(a) CC(C)NCC(O)COc1cccc2ccccc12 (stereo not drawn) [Propranolol HCl]
(b) CC[C@]1(O)C[C@@H]2CN(CCc3c([nH]c4ccccc34)[C@@](C(=O)OC)(c3cc4c(cc3OC)N(C)[C@H]3[C@@](O)(C(=O)OC)[C@H](OC(C)=O)[C@]5(CC)C=CCN6CC[C@]43[C@@H]65)C2)C1
Problem: For the pair a and b , which entry has the numerically smaller recorded fraction unbound at 4 h, 10 μM? Kindly state the label of the option you pick.
Solution: b
(b: 0.073, a: 0.264)
